- Method Summary: Stability of alkylated amino acid in cleaning composition 1 by HPLC-UV peak area vs t=0
- Type: physicochemical
- Measurement Setup: 4 weeks, 70° F. (21° C.), HPLC-UV peak area relative to t=0
Quantity: % at t = 4 w (70° F.) (%)
Provide only the numeric value, understood in %.

Q: Given the compound CCCCCCCCCCCCNC(CCCNC(=N)N)C(=O)O (centres unmarked) , what is its reported % at t = 4 w (70° F.)?
Ans: 100

Q: Given the compound CCCCCCCCCCCCNC(CCCCN)C(=O)O (centres unmarked) , what is its reported % at t = 4 w (70° F.)?
Ans: 90

Q: Given the compound CCCCCCCCCCCCNC(=O)C(N)Cc1c[nH]c2ccccc12 (centres unmarked) , what is its reported % at t = 4 w (70° F.)?
Ans: 118

Q: Given the compound CCCCCCCCCCCCOC(=O)C(N)Cc1ccccc1 (centres unmarked) , what is its reported % at t = 4 w (70° F.)?
Ans: 82

Q: Given the compound CCCCCCCCCCCCOC(=O)C(N)Cc1c[nH]c2ccccc12 (centres unmarked) , what is its reported % at t = 4 w (70° F.)?
Ans: 92

Q: Given the compound CCCCCCCCCCCCOC(=O)C(N)CC(C)C (centres unmarked) , what is its reported % at t = 4 w (70° F.)?
Ans: 64

Q: Given the compound CCCCCCCCCCCC(=O)NC(CCCCN)C(=O)OCC (centres unmarked) , what is its reported % at t = 4 w (70° F.)?
Ans: 88

Q: Given the compound CCCCCCCCCCCCNC(=O)CN , what is its reported % at t = 4 w (70° F.)?
Ans: 90

Q: Given the compound CCCCCCCCCCCCNC(=O)C(N)Cc1ccc(O)cc1 (centres unmarked) , what is its reported % at t = 4 w (70° F.)?
Ans: 98

Q: Given the compound CCCCCCCCCCCC(=O)NCCCCC(N)C(=O)OCC (centres unmarked) , what is its reported % at t = 4 w (70° F.)?
Ans: 13

Q: Given the compound CCCCCCCCCCCCNC(=O)C(N)Cc1ccccc1 (centres unmarked) , what is its reported % at t = 4 w (70° F.)?
Ans: 104

Q: Given the compound CCCCCCCCCCCCNC(Cc1c[nH]c2ccccc12)C(=O)OCC (centres unmarked) , what is its reported % at t = 4 w (70° F.)?
Ans: 94

Q: Given the compound CCCCCCCCCCCCOC(=O)C(N)Cc1ccc(O)cc1 (centres unmarked) , what is its reported % at t = 4 w (70° F.)?
Ans: 75

Q: Given the compound CCCCCCCCCCCCNC(Cc1ccccc1)C(=O)OCC (centres unmarked) , what is its reported % at t = 4 w (70° F.)?
Ans: 93

Q: Given the compound CCCCCCCCCCCCOC(=O)CN , what is its reported % at t = 4 w (70° F.)?
Ans: 0

Q: Given the compound CCCCCCCCCCCC(=O)NC(CCCNC(=N)N)C(=O)OCC (centres unmarked) , what is its reported % at t = 4 w (70° F.)?
Ans: 80

Q: Given the compound CCCCCCCCCCCCNC(CC(C)C)C(=O)OCC (centres unmarked) , what is its reported % at t = 4 w (70° F.)?
Ans: 93

Q: Given the compound CCCCCCCCCCCCNC(=O)C(N)CCCCN (centres unmarked) , what is its reported % at t = 4 w (70° F.)?
Ans: 97

Q: Given the compound CCCCCCCCCCCCNC(=O)C(C)CC(C)C (centres unmarked) , what is its reported % at t = 4 w (70° F.)?
Ans: 90

Q: Given the compound CCCCCCCCCCCCNC(Cc1ccc(O)cc1)C(=O)OCC (centres unmarked) , what is its reported % at t = 4 w (70° F.)?
Ans: 99

Q: Given the compound CCCCCCCCCCCCNC(=O)C(N)CCCNC(=N)N (centres unmarked) , what is its reported % at t = 4 w (70° F.)?
Ans: 106

Q: Given the compound CCCCCCCCCCCCNCC(=O)OCC , what is its reported % at t = 4 w (70° F.)?
Ans: 8

Q: Given the compound CCCCCCCCCCCCNCCCCC(N)C(=O)O (centres unmarked) , what is its reported % at t = 4 w (70° F.)?
Ans: 100
